molecular target: Hordeum HPPD L320N (Hordeum vulgare, UniProt O48604, A164G/L320N/R146V/R147D/R148G); construct: His-tag (N); made in house; host or cells: E. coli BL21 (DE3); assay: HPPD activity assay, mutant; format: biochemical; conditions: Hordeum HPPD variant L320N; normalized on wild-type;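 also: reaction started with 4-HPP at 0.05 mM after 30 min preincubation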
Sequence (O48604 whole entry R146V/R147D/R148G/A164G/L320N): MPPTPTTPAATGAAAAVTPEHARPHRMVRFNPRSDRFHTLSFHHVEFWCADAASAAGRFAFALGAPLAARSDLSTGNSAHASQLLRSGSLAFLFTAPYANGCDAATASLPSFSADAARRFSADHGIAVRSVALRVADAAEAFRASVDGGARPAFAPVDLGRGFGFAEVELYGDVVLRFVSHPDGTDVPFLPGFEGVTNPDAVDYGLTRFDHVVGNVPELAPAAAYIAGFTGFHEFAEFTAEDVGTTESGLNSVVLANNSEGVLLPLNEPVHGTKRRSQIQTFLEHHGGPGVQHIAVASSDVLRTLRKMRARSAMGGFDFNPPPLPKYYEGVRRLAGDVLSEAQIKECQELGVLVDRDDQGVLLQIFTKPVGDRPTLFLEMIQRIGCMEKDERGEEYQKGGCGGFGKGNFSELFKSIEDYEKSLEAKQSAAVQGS
Measured Attribute: Normalized tolerance index (TI)
No unit in the answer, only the number.

Q. Output Normalized tolerance index (TI) of "CS(=O)(=O)c1ccc(C(=O)C2C(=O)CCCC2=O)c([N+](=O)[O-])c1"
A. 0.3

Q. Output Normalized tolerance index (TI) of COCCOCc1nc(C(F)(F)F)ccc1C(=O)C1=C(O)C2CCC(C2)C1=O (stereo not shown)
A. 1.2

Q. Output Normalized tolerance index (TI) of "Cc1c(C(=O)c2cnn(C)c2O)ccc(S(C)(=O)=O)c1C1=NOCC1"
A. 1.3

Q. Output Normalized tolerance index (TI) of "CS(=O)(=O)c1ccc(C(=O)C2C(=O)CCCC2=O)c(Cl)c1COCC(F)(F)F"
A. 1.5
